Exercise: state measured IC50 for each of the molecules provided.
Target: UniProt C7C422
Sequence (C7C422 whole entry, looked up, species assumed): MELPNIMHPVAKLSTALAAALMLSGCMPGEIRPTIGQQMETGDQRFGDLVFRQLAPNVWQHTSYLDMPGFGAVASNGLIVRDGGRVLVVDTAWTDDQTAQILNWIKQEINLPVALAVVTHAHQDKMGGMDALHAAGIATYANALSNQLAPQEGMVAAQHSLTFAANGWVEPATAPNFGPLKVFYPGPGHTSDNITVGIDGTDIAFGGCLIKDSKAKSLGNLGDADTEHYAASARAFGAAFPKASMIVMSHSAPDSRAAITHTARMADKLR
Assay remarks: biochemical
Assay type: biochemical
Settings: fluorescence assay, CCF2-FA substrate, 1 pM enzyme, 2 hours at 25° C.; read-out: NDM-1 IC50
Numeric only. Scale: pM

The measured IC50 that `C[C@@H](CN)NS(=O)(=O)c1ccc(-c2cccc3[nH]c(N)nc23)c(-c2nn[nH]n2)c1S(N)(=O)=O` showed for UniProt C7C422 is 366

IC50 for UniProt C7C422 with input CO[C@H]1CNC[C@@H]1NS(=O)(=O)c1ccc(-c2cccc3sc(N)nc23)c(-c2nnn[nH]2)c1S(N)(=O)=O.O=C(O)C(F)(F)F [Example 108, 2,2,2-trifluoroacetate] equals 51.2

`Cn1c(N)nc2c(-c3ccc(S(=O)(=O)NCCCN)c(S(N)(=O)=O)c3-c3nn[nH]n3)cccc21` tested on UniProt C7C422 gave IC50: 53.9

# lookup: `NS(=O)(=O)c1c(S(=O)(=O)N[C@@H]2CCNC2)ccc(-c2cccc3cn[nH]c23)c1-c1nnn[nH]1` on UniProt C7C422, IC50 = 58.2

Noted IC50 for `C[C@H](CCN)NS(=O)(=O)c1ccc(-c2ccc(N)nc2)c(-c2nn[nH]n2)c1S(N)(=O)=O` , tested on UniProt C7C422: 14.6

Case `C[N+]1(C)CC[C@@H](NS(=O)(=O)c2ccc(-c3cccc4[nH]c(N)nc34)c(-c3nn[nH]n3)c2S(N)(=O)=O)C1.[Cl-]` , UniProt C7C422, IC50 recorded as 22.5
